Reference for the values: ChEMBL document CHEMBL5036308

# assay_procedure: Drug uptake in human HN-143 T-EC cells assessed as drug retention at 1600 nM incubated for 24 hrs in presence of 10% fetal bovine by fluorescent microscopy imaging based analysis
# Assay type: ADME, cell-based
# recorded_conditions: 1.6 µM
experimental_endpoint: Drug uptake

CCCCC(C)OCc1c(C)c2cc3nc(c4c5[nH]c(cc6nc(cc1[nH]2)C(C)=C6CC)c(C)c5C(=O)C4)[C@@H](CCC(=O)O)C3C (stereo partly drawn) = Active
CCCCCCOC(C)c1c(C)c2cc3nc(c4c5[nH]c(cc6nc(cc1[nH]2)C(C)=C6CC)c(C)c5C(=O)C4)[C@@H](CCC(=O)O)C3C (stereo partly drawn) = Active
CCCCCCSC(C)c1c(C)c2cc3nc(c4c5[nH]c(cc6nc(cc1[nH]2)C(C)=C6CC)c(C)c5C(=O)C4)[C@@H](CCC(=O)O)C3C (stereo partly drawn) = Active

* * *

# assay_procedure: Drug uptake in human HN-143 T-EC cells assessed as drug retention at 1600 nM incubated for 24 hrs in presence of 10% fetal bovine by fluorescent microscopy imaging based analysis
# Assay type: ADME, cell-based
# recorded_conditions: 1.6 µM
experimental_endpoint: Drug uptake

CCCCC(C)OC(C)c1c(C)c2cc3nc(c4c5[nH]c(cc6nc(cc1[nH]2)C(C)=C6CC)c(C)c5C(=O)C4)[C@@H](CCC(=O)O)C3C (some centres undefined) = Active
CCCCCCOC(CCC)c1c(C)c2cc3nc(c4c5[nH]c(cc6nc(cc1[nH]2)C(C)=C6CC)c(C)c5C(=O)C4)[C@@H](CCC(=O)O)C3C (some centres undefined) = Active
CCCCOC(CCC)c1c(C)c2cc3nc(c4c5[nH]c(cc6nc(cc1[nH]2)C(C)=C6CC)c(C)c5C(=O)C4)[C@@H](CCC(=O)O)C3C (some centres undefined) = Active
